# Method description: qHTS assay to identify small molecule antagonists of the estrogen related receptor (ERR) signaling pathway from Tox21 library (AID 1224848); further: nearly all actives have a fitted effect of over 50% in size
# Condition description: ERR reporter cell line, luciferase antagonist mode, 18 h; series mostly up to 92.4 µM
Records with an inconclusive call do not appear. Activity calls are given as the source filed them. The call rests on the fitted dose curve; in most records, active means well fitted inhibition curve with a large enough effect in the repeat runs; inconclusive means weak or mixed curves; inactive means no such curve, though single readings can be large or run the other way.
// allowed return values: Yes = active, No = inactive

Reference set, count: 5
- CC(C)CC(=O)C1C(=O)c2ccccc2C1=O: Yes
- NCCCN1CCOCC1: No
- OCc1cc(C(O)CNCCCCCCOCCCCc2ccccc2)ccc1O (configuration not stated): Yes
- OC(C#CCN1CCCC1)(c1ccccc1)c1ccccc1: No
- Nc1cccc([N+](=O)[O-])c1: No

Name the outcome recorded for CN(C)CCOC(c1ccccc1)c1ccc(Br)cc1 (configuration not stated) in the assay.
No

Name the outcome recorded for CC(=O)[O][Al] in the assay.
No

Taken from PubChem BioAssay (Tox21).
